Could you please report measured LD50 at 72 h for the items listed next?
# Assay notes: in vivo
# Condition: mouse, ip
Structures can show the parent of a compound that is named as a salt.
One number for each entry, in mg/kg.

Please supply LD50 at 72 h for each of the following items, keeping them in order.
1. CCN(CC)CCC(=O)NC1[C@H](c2ccccc2)[C@H]1c1ccccc1 (relative stereo) [cis-trans, R1 = C2 H5, R2 = C2 H5]
2. CNCCC(=O)NC1[C@H](c2ccccc2)[C@H]1c1ccccc1 (relative stereo) [cis-trans, R1 = H, R2 = CH3, hydrochloride]
3. CCNCCC(=O)NC1[C@H](c2ccccc2)[C@H]1c1ccccc1 (relative stereo) [cis-trans, R1 = H, R2 = C2 H5, hydrochloride]
4. CN(C)CCC(=O)NC1[C@H](c2ccccc2)[C@H]1c1ccccc1 (relative stereo) [cis-trans, R1 = CH3, R2 = CH3]

Response given:
[79, 120, 89.5, 88]

Numbers sourced from patent US3954777A.
